Experiment: label from the status in PepcDB records
Outcome Measure: protein production

Worked cases, answers included:
MDKLRGMETFIAVVECGSFTGAASRLGLSAVMVGKYIAQLESQLATRLLERNTRRQSLTDAGRVYFDEAKRVMEQVSIAESAVERLRLAPAGTLRVSAPTSFGASVIAPLTATFLQAWPAVRVELDLTNRMVDLVDEGVDLAIRIGEIHQEDLVARYLAPYRMVICAAPAYLARYGTPGTPEDLTDHLCLSHTVWTARNEWRLPGVEGEVRWKRDAVLRCNDGYALRQAAIAGAGLLMQPEVLLADALASGSLVRVLEAWTPQPRPVHLLWRQDRRPLPKLTQFIAHLQQGMADALTTTRASE
failed
MKIITCYKSVPDEQDIVVNNADGSLDFSRANNKISQYDLNAIEAANQLKTQLDGIQITAMSVGGNALTNAKARKDVLSRGADDLVVVVDEQLEASLPYQTATVLAAAATKQGYDLILCGDGSADLSSQQVSLLVGEILNIPAINGVNKIVSITTDSITVERELENEIETLTITLPAVIAVSTDINSPQIPSMKAILGAAKKPVQQWSVADLGLEPITPRSEQTVLAPKQKVRQRIIIEGDGDDQIAEFAEYLRKIIK
failed
MTPTPLHSITPFSMLDFPSMLSCILWFSGCNLACSYCYNPEFLKESGKIDLEGLLSFLRSRVGLLEGVVFSGGEATLFAGLPLWMEEVRSLGFKIKLDTNGTNPAMLKELLQKGYLDYVAMDFKGKEERFGMITGREFYGRFLESLEILLSSSIPFEIRTTVHSYLLQEEDIAEMAALLKERGYKGAFYLQHFVGEKETLKPLPESRRLKLDEEAIETKIIWR
failed
MAYTTTVKLDGDTKTYTLSPTVKKYTLMDLGFVKGRSGAFSFERSLDPTSPYQAAFKLKMTVNADLTGFKMTTVTGNGVQRANIFKNDAHPEAVEQLRYILANFIERDILTTD
not failed
MFKKRLNKDKINDCYTWEEELPDGSYDMGFHGNLNHMEKGKSGYVTHKQLDKKLEVFKQDLLVELSEKFVTKEEFRAQGKQIKELQIEQKAQGKTLQLILEALQGINKRLDKLESKLEHHHHHH
not failed

Enquiry: Query (sequence): MYPEKEYEELIKKIKTKVKEELNKNSKANVSGLNLDTAKRLADAAVKKAGEMGVNVAVAVMDIHGNMILFNRMDDSVLAAIEVAPKKAYTSAALRIPSSEVLKGGFDKLVETMEGKIAAFGGGLPVRSNGIFLGALGVSGGTSEEDIKIAEYAVNAVFG ; field requested: protein production
Return: failed

Enquiry: Query (sequence): MTEMELKLIKIDTSHYFEKKPGLGERVDYAGRCFYNKFQRVNAMLTSSLIQKHLKREIEIAHNLILRNDKVENIVFDYNGRNPERFYHKAQLLLREEGFMNFTAYNTKTPGHLHLYVHKGHTELGEGERLVKTLSMKLAQGLPKEWKVFPSNEWPKEFNILALPYEVFAKERGSSWAKHL ; field requested: protein production
Return: not failed

Enquiry: Query (sequence): MENFDEVIKEYQKYLEGKEKTHKINSCKHPCCEEDNLKSVKNYFKVYHKKYIPSIIQKKKKERNEHAPPLLKDIQDKRCTNVFERLNDKQFYTGVQKTKFMELLKNNKNKSSYCYNNIKVFSTMLKKPCNYVVTPGTLGIQKYGIQTGRPKTIFLFNNEKKYDKGVYFLVKSYIKNIKSLCYEITKILQPSIGPTRKIYDQNFSLVRNVNDLINGGKYLCTSGDPPAPIRNLSLHFLT ; field requested: protein production
Return: failed

Enquiry: Query (sequence): MFETFFSTYLSSTIRFLFLLAPFFVVTMFLALTRGLSMAEKTSIIRRACVSAFILGVILFFAGPLLFNAIGITLNSFRIGAGSLLFLTAISLVNSGTRNHATGLPEEDRDDIAVVPLAIPVMIGPATIGAIMVYGAELKAVPEVAGGLLGLVSGLMILAGLLRLSGYLEKALGKTGLNIMSKISGLILSAMAAEIVLTGIAGFIASTSGA ; field requested: protein production
Return: failed
